Test system: HOP-92
assayOverview: NCI tumour cell line growth inhibition, 48 h
Active and inactive are the calls of the source. Cut-off read from the data, not from the text of the source: active = GI50 up to about 1.1 µM and inactive = higher.
Respond with a class label; see active, inactive

Query block: Entry [O-][n+]1c2c([n+]([O-])c3ccccc31)CCCCCCCCCC2 : call = ?
Result block: inactive

Query block: Entry O=[N+]([O-])c1ccc2c(c1)N=C1OC(c3c[nH]c4ccc(COc5ccccc5)cc34)C(O)=C1N2 (stereo not given) : call = ?
Result block: inactive

Query block: Entry O=c1ncccn1C1OC(CO)C(O)C1O (stereo not given) : call = ?
Result block: inactive

Query block: Entry NC(=O)C(c1ccccc1)N1OC2C(=O)N(c3ccccc3)C(=O)C2C1c1c2ccccc2c(Cl)c2ccccc12 (stereo not given) : call = ?
Result block: inactive

Query block: Entry O=C1c2cc([N+](=O)[O-])sc2C(=O)c2ccsc21 : call = ?
Result block: active

Query block: Entry C=C(C)CNC(=S)N(N)c1ccc(OC)cc1 : call = ?
Result block: inactive

Query block: Entry Nc1ccccc1C(=O)CC1OC(=O)c2ccccc21 (stereo not given) : call = ?
Result block: inactive

Query block: Entry CCCCCCCC(CC(=O)O)OC(=O)CC(CCCCCCC)OC1OC(C)C(O)C(O)C1OC1OC(C)C(O)C(O)C1O (stereo not given) : call = ?
Result block: inactive

Query block: Entry CCN(CC)C(=O)CNC(=O)OC(C)(C)C : call = ?
Result block: inactive

Query block: Entry CCOC(=O)c1c(N2CCOCC2)[nH]c(=O)c(C(c2ccc(OC)cc2)c2c(O)c(C(=O)OCC)c(N3CCOCC3)[nH]c2=O)c1O : call = ?
Result block: inactive

====

Tested on: SF-539
assayOverview: NCI tumour cell line growth inhibition, 48 h
The source made the active and inactive calls. No stated cut-off is given here; in the data, active = GI50 up to about 1.1 µM and inactive = higher.
Respond with a class label; see active, inactive

Query block: Entry O=C1CSC(c2ccc([N+](=O)[O-])cc2)N1c1nc(-c2ccc3c(c2)CCCC3)cs1 (configuration not stated) : call = ?
Result block: inactive

Query block: Entry CC(=O)C(CN(C)Cc1ccccc1)C(c1ccccc1)c1c(O)c2ccccc2oc1=O (configuration not stated) : call = ?
Result block: inactive

Query block: Entry O=C(OC1CCC(=C2SCCCS2)[C@H]1C1SCCCS1)c1ccccc1 (some centres not stated) : call = ?
Result block: inactive

Query block: Entry O=[N+]([O-])c1ccc2c(c1)N=C1OC(c3c[nH]c4ccc(COc5ccccc5)cc34)C(O)=C1N2 (configuration not stated) : call = ?
Result block: inactive

Query block: Entry N#Cc1c(-c2ccc(Cl)cc2)c2c([nH]c1=O)-c1cc([N+](=O)[O-])ccc1CCC2 : call = ?
Result block: inactive

Query block: Entry Cn1cnnc1Sc1c([N+](=O)[O-])nc(-c2ccc([N+](=O)[O-])cc2)n1C : call = ?
Result block: inactive

Query block: Entry CC(C)(/C=N/O)/[N+]([O-])=C/c1ccccc1 : call = ?
Result block: inactive

Query block: Entry O=C1/C(=C/c2ccc3c(c2)OCO3)Sc2scc(-c3ccc(O)c(O)c3)[n+]21 : call = ?
Result block: inactive

Query block: Entry COC(=O)c1cc(C)ccc1/C=C1\Cc2cccc(C)c2C1=O : call = ?
Result block: inactive

Query block: Entry CCN1CCc2sc3nc(S)n(C)c(=O)c3c2C1 : call = ?
Result block: inactive

Query block: Entry COc1ccc(OC)c(CNc2ccc(O)c(C(=O)NCCc3ccc(F)cc3)c2)c1 : call = ?
Result block: inactive

Query block: Entry O=C(O)Cn1ccc(=O)c2cc([N+](=O)[O-])ccc21 : call = ?
Result block: inactive

Query block: Entry Oc1ccc(Cl)cc1C1=NC(NCN2CCN(CNC3=NC(c4ccccc4)CC(c4cc(Cl)ccc4O)=N3)CC2)=NC(c2ccccc2)C1 (configuration not stated) : call = ?
Result block: inactive

Query block: Entry COc1ccc([C@@H]2CC(=O)NCCCNCCCCNCCCN2)cc1 : call = ?
Result block: inactive

Query block: Entry O=P1(Oc2ccccc2)C(c2ccccc2)C(c2ccccc2)=NN1c1ccccc1 (configuration not stated) : call = ?
Result block: inactive

Query block: Entry Cc1ccc2c(n1)C(=O)c1ccccc1C2=O : call = ?
Result block: inactive

Query block: Entry Cc1ccc(C2=Nc3ccccc3SC(c3cccc([N+](=O)[O-])c3)C2)cc1 (configuration not stated) : call = ?
Result block: inactive

Query block: Entry COc1ccc(N2C(=O)/C(=C/c3ccc(N(CCC#N)CCC#N)cc3)N=C2c2ccccc2)cc1 : call = ?
Result block: inactive

Query block: Entry C=CC(OCC)(OCC)OCC : call = ?
Result block: inactive

Query block: Entry COc1ccc(/C=C/c2cc(O)cc(OC)c2)cc1 : call = ?
Result block: inactive

Query block: Entry O=[N+]([O-])c1ccccc1S(=O)(=O)c1cc(Cl)cc2c1NCCC2 : call = ?
Result block: inactive

Query block: Entry CCOC(=O)[C@@H]1C[C@H]1c1ccc(O)c(O)c1 : call = ?
Result block: inactive

Query block: Entry COc1ccc2nc3cc(Cl)ccc3c(NCCCN(CCCl)CCCl)c2c1 : call = ?
Result block: active

Query block: Entry COc1ccc(-c2cnoc2-c2ccc(OC)c(OC)c2)cc1OC : call = ?
Result block: inactive

Query block: Entry COC(=O)[C@H](C)[C@H]1CC[C@@](C)([C@H]2CC3C(C)(C)[C@H]4CCC(C)=C[C@H]4C[C@@]3(C)O2)OO1 (some centres not stated) : call = ?
Result block: inactive

Query block: Entry CCCCCCCCCCCCCCC(C)CCC(=O)O (configuration not stated) : call = ?
Result block: inactive

Query block: Entry Cc1cn2c(=O)c3ncn(C4OC(CO)C(O)C4O)c3n(C)c2n1 (configuration not stated) : call = ?
Result block: inactive

Query block: Entry CSc1nc(NC2OCC(OC(C)=O)C(OC(C)=O)C2OC(C)=O)c2c(n1)OCC2=O (configuration not stated) : call = ?
Result block: inactive

Query block: Entry O=C1OC(=O)C2C1C(c1ccccc1[N+](=O)[O-])C=C(c1ccco1)N2c1ccncc1 (configuration not stated) : call = ?
Result block: inactive

Query block: Entry COC(=O)C1=CC[C@@H]2C(C(=O)O)=CO[C@@H](OC3OC(CO)C(O)C(O)C3O)[C@H]12 (some centres not stated) : call = ?
Result block: inactive

Query block: Entry O=C(c1cccnc1)N1N=C(c2ccc(Cl)cc2)CC1(O)c1cc(F)c(Cl)cc1Cl (configuration not stated) : call = ?
Result block: inactive

Query block: Entry CCOC(=O)C1=CCOc2cc(N(C)C)ccc21 : call = ?
Result block: inactive
